Collected IC50 values appear next to each entry.
# System: Colo205 cells
# assay name: Analysis of cell proliferation and viability
# Type: cell-based
# run conditions: Homo sapiens, COLO 205, 72 hours, read-out: IC50 values after 72 hours

substance smiles: Cc1cc(Nc2cc(N3CCN(C4CCCCC4)CC3)nc(Sc3ccc4nc(C(F)(F)F)[nH]c4c3)n2)[nH]n1
IC50: < 50 nM
//
substance smiles: Cc1cc(Nc2cc(N3CCN(C4CCN(C)CC4)CC3)nc(Sc3ccc4nc(C(F)(F)F)n(C)c4c3)n2)[nH]n1
IC50: < 50 nM
//
substance smiles: Cc1cc(Nc2cc(N3CCN(CC(F)(F)F)CC3)nc(Sc3ccc4c(c3)CN(CC(F)(F)F)C4=O)n2)[nH]n1
IC50: 50 to 100 nM
//
substance smiles: Cc1cc(Nc2cc(N3CCN(C4CCN(C)CC4)CC3)nc(Sc3cc(F)c4nc(C)ccc4c3)n2)[nH]n1
IC50: < 50 nM
//
substance smiles: Cc1cc(Nc2cc(N3CCN(C4CCCCC4)CC3)nc(Sc3ccc4nc(C(F)(F)F)n(C)c4c3)n2)[nH]n1
IC50: < 50 nM
//
substance smiles: Cc1cc(Nc2cc(N3CCN(C4CC4)CC3)nc(Sc3ccc4c(c3)CN(CC(F)(F)F)C4=O)n2)[nH]n1
IC50: < 50 nM
//
substance smiles: Cc1cc(Nc2cc(N3CCN(C4CC4)CC3)nc(Sc3ccc4nc(C(F)(F)F)n(C)c4c3)n2)[nH]n1
IC50: 50 to 100 nM
//
substance smiles: Cc1cc(Nc2cc(N3CCN(C4CCCCC4)CC3)nc(Sc3cc(F)c4nc(C)ccc4c3)n2)[nH]n1
IC50: 50 to 100 nM
//
substance smiles: Cc1cc(Nc2cc(N3CCN(C4CCCCC4)CC3)nc(Sc3ccc4nc(CC(F)(F)F)n(C)c4c3)n2)[nH]n1
IC50: < 50 nM
//
substance smiles: Cc1cc(Nc2cc(N3CCN(C(C)(C)CF)CC3)nc(Sc3ccc4nc(CC(F)(F)F)n(C)c4c3)n2)[nH]n1
IC50: < 50 nM
//
substance smiles: Cc1cc(Nc2cc(N3CCN(C4CCN(C)CC4)CC3)nc(Sc3ccc4nc(C(F)(F)F)ccc4c3)n2)[nH]n1
IC50: 50 to 100 nM
//
substance smiles: Cc1cc(Nc2cc(N3CCN(C4CC4)CC3)nc(Sc3ccc4nc(C(F)(F)F)[nH]c4c3)n2)[nH]n1
IC50: 50 to 100 nM
//
substance smiles: Cc1cc(Nc2cc(N3CCN(C(C)(C)CF)CC3)nc(Sc3ccc4c(c3)CN(CC(F)(F)F)C4=O)n2)[nH]n1
IC50: 50 to 100 nM
//
substance smiles: Cc1cc(Nc2cc(N3CCN(C4CC4)CC3)nc(Sc3ccc4nc(CC(F)(F)F)n(C)c4c3)n2)[nH]n1
IC50: < 50 nM
//
substance smiles: Cc1cc(Nc2cc(N3CCN(C4CCCCC4)CC3)nc(Sc3ccc4c(c3)CN(CC(F)(F)F)C4=O)n2)[nH]n1
IC50: < 50 nM

---

Sequence of the target: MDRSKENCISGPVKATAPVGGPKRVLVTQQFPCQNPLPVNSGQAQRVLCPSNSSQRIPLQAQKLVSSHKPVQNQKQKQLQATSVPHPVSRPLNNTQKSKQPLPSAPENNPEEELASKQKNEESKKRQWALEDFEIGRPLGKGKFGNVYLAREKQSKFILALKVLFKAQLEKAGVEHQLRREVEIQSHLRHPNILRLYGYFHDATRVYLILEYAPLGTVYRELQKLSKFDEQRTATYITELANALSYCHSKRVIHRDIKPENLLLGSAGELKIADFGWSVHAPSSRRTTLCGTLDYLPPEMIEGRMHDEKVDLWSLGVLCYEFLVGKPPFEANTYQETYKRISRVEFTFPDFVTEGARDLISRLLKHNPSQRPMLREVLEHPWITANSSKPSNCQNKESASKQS
pKi: −log10 of the molar value.
endpoint: pKi

substance smiles: Cc1cc(Nc2cc(N3CCN(CC(F)(F)F)CC3)nc(Sc3ccc4nc(C(F)(F)F)[nH]c4c3)n2)[nH]n1
endpoint: pKi
value reported: ≥ 9.00

Values from patent US20130324725A1
